Molecular target: Keap1/Nrf2 (Homo sapiens, UniProt Q14145)
Sequence (Q16236 whole entry, the tested form may be a part): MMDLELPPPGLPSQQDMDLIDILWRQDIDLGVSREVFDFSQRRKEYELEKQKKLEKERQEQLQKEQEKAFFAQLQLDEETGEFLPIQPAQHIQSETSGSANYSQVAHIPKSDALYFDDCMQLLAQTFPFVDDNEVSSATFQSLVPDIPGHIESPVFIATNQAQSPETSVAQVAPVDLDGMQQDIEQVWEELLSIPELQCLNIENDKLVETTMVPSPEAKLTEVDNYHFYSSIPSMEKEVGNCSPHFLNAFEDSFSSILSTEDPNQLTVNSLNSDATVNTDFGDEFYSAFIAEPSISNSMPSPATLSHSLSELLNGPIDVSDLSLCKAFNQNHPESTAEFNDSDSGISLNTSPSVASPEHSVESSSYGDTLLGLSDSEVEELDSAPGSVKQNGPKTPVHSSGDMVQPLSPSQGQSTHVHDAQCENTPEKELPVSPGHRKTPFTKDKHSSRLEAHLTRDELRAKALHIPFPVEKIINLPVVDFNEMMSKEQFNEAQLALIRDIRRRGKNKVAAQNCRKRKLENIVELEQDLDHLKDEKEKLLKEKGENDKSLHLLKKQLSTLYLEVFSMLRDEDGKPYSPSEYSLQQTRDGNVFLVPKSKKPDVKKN
Sequence (Q14145 whole entry, the tested form may be a part): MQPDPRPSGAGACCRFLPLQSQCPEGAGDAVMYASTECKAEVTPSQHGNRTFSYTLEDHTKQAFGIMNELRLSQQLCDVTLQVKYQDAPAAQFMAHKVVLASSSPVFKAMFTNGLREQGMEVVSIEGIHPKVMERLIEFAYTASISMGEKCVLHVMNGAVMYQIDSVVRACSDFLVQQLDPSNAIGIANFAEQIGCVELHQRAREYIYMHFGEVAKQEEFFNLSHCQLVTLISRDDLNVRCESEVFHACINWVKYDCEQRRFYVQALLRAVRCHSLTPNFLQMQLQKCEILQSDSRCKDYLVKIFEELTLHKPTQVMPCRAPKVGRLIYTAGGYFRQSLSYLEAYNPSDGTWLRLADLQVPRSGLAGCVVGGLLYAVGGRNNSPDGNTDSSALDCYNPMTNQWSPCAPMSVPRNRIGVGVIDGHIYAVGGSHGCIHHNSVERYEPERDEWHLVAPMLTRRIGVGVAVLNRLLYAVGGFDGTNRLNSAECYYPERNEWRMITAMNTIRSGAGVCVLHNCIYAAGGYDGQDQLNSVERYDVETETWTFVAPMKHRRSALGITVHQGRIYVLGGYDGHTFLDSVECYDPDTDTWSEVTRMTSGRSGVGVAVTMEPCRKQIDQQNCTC
Test: Inhibition of recombinant human Keap1 Kelch domain (321 to 609 residues) expressed in Escherichia coli BL21 (DE3)pLysS cells/Nrf2 (unknown origin) protein-protein interaction using FITC-LDEETGEFL-NH2 as fluorescent substrate preincubated with compound for 30 mins followed by substrate addition and measured after 1 hr by fluorescence polarization assay relative to control
readout: IC50 (nM)

O=C(O)CN(c1ccc(N(CC(=O)O)S(=O)(=O)c2ccc(-c3ccccc3)cc2)c(OCc2ccccc2)c1)S(=O)(=O)c1ccc(-c2ccccc2)cc1 = 750
Cc1ccc(S(=O)(=O)N(CC(=O)O)c2cc(OCc3ccc(F)cc3)c(N(CC(=O)O)S(=O)(=O)c3ccc(C)cc3)c3ccccc23)cc1 = 65
COc1ccc(S(=O)(=O)N(CC(=O)O)c2ccc(N(CC(=O)O)S(=O)(=O)c3ccc(OC)cc3)c(COc3ccccc3)c2)cc1 = 2620
Cc1ccc(S(=O)(=O)N(CC(=O)O)c2ccc(N(CC(=O)O)S(=O)(=O)c3ccc(C)cc3)c(OCc3ccccc3)c2)cc1 = 450

a: O=C(O)CN(c1ccc(N(CC(=O)O)S(=O)(=O)c2ccc(C(F)(F)F)cc2)c(OCc2ccccc2)c1)S(=O)(=O)c1ccc(C(F)(F)F)cc1
b: Cc1ccc(S(=O)(=O)N(CC(=O)O)c2ccc(N(CC(=O)O)S(=O)(=O)c3ccc(C)cc3)c(OCc3ccc(F)cc3)c2)cc1
// query Field: lower IC50 | Options: a / b # respond with the chosen item's label
// result b
(b: 450 nM, a: 1760 nM)

A: Cc1ccc(S(=O)(=O)N(Cc2nnn[nH]2)c2ccc(N(Cc3nnn[nH]3)S(=O)(=O)c3ccc(C)cc3)c(OCc3ccc(F)cc3)c2)cc1
B: COc1ccc(S(=O)(=O)N(CC(=O)O)c2ccc(N(CC(=O)O)S(=O)(=O)c3ccc(OC)cc3)c(OCc3ccc(F)cc3)c2)cc1
// query Pick one: A or B . Which has the bigger IC50 number? # respond with the chosen item's label
// result A

a: Cc1ccc(S(=O)(=O)N(c2ccc(N([C@@H](C)C(=O)O)S(=O)(=O)c3ccc(C)cc3)c(OCc3ccc(F)cc3)c2)[C@@H](C)C(=O)O)cc1
b: COc1ccc(S(=O)(=O)N(CC(=O)O)c2ccc(N(CC(=O)O)S(=O)(=O)c3ccc(OC)cc3)c(OCc3cccc4ccccc34)c2)cc1
// query Pick one: a or b . Which has the bigger IC50 number? # respond with the chosen item's label
// result a
